Test system: Human immunodeficiency virus 2
assayDetails: Antiviral activity against HIV2 ROD infected in human CD4+ T-lymphocyte CEM cells assessed as inhibition of virus-induced cytopathicity after 4 to 5 days by microscopic analysis
Assay type: functional, organism-based
conditionParameters: Human immunodeficiency virus 2, ISOLATE ROD, CCRF-CEM
pEC50: −log10 of the molar value.
observable: pEC50

Answered examples (2):
> print(dat)
                                     smiles  observable  reading
1  CCc1c(CNC(=O)c2cccc(O)c2O)c(CC)c(CNC(=O)c2cccc(O)c2O)c(CC)c1CNC(=O)c1cccc(O)c1O       pEC50   < 5.70
2  CCc1c(CNCCNC(=O)c2ccc(O)c(O)c2O)c(CC)c(CNCCNC(=O)c2ccc(O)c(O)c2O)c(CC)c1CNCCNC(=O)c1ccc(O)c(O)c1O       pEC50   < 5.00

Could you now consider this next compound?
# query: pEC50 of entry CCc1c(CNC(=O)c2ccc(N)cc2)c(CC)c(CNC(=O)c2ccc(N)cc2)c(CC)c1CNC(=O)c1ccc(N)cc1
< 3.60
